Just for reference, the nanobody polyreactivity screen of Harvey et al. (2022) is where these values come from.

Test: yeast display, Sf9 membrane polyspecificity reagent, FACS + sequencing; frameworks hold sequencing errors
testReadout: polyreactivity (PSR sort gate)

INSERT INTO measurements (itemsequence, testreadout, datavalue) VALUES
  ('QVKLVESGGGIVQAGGSLRLSCAASGRIFYSNVMGWYRQAPGKERELVATISGSSGRTYADSVKGRFTISRDNAKNTVYLQMNSLKPEDTAVYYCAADSPSVWGYRYDYDYWGQGTQVTVSS', 'polyreactivity (PSR sort gate)', 'low polyreactivity'),
  ('QVQLVESGGGLVQAGGSLRLSCAASGRTFGLYAMGWYRQAPGKERELVAAIDQSTGSTYYADSVKGRFTISRDHAKNTVYLQMNSLKPEDTAVYYCAAEEASTVRYYWYDYWGQGTQVTVSS', 'polyreactivity (PSR sort gate)', 'high polyreactivity'),
  ('QVQLVESGGGLVQAGGSLRLSCAASGGIFGYYAMGWYRQAPGKEREFVAAITARGGRTYYADSVKGRFTISRDNAKNTVYLQMNSLKPEDTAVYYCAAYSPVWGRYYHRVERDYWGQGTQVTVSS', 'polyreactivity (PSR sort gate)', 'high polyreactivity'),
  ('QVQLVESGGGLVQAGGILRLSCAASGFTSWDNDMGWYRQAPGKERELVAAISRGGSTNYADSVKGRFTLSRDNAKNTVYLQMNSLKPEDPAVYYCATAAVTPVWYDYWGQGTQVTVSS', 'polyreactivity (PSR sort gate)', 'low polyreactivity');

Incoming: Requested read-out: polyreactivity (PSR sort gate). Entry: QVQLVESGGGLVQAGGSLRLSCAASGRIFSDYAMGWSSQAPGKERELVATITSGDSTNYADSVKGRFTISRDHAKNTVYLQMNSLKPEDTAVYYCNADRFADYDYWGQGTQVTVSS
Outgoing: low polyreactivity

---

Assay: yeast display, Sf9 membrane polyspecificity reagent, FACS + sequencing; frameworks hold sequencing errors
testReadout: polyreactivity (PSR sort gate)

INSERT INTO assay_data (itemsequence, datavalue) VALUES
  ('QVQLVESGGGLVQAGGSLRLSCAASGLTFGSNGMGWYRQAPGKERELVAAISRGGSTSYADSVKGRFTISRDNAKNTVYLQMNSLKPEDTAVYYCAARSYRYSYRYRAFDYWGQGTQVTVSS', 'high polyreactivity'),
  ('QVQLVESGGGLVQAGGSLRLSCAASGSIFPGYTMGWYRQAPGKERELVAAISRRGGSTYYADSVKGRITISRDNAKNSVYLQMNSLKPEDTAVYYCAKVPDYRFEYWGQGTQVTVSS', 'high polyreactivity');

---

Experiment: yeast display, Sf9 membrane polyspecificity reagent, FACS + sequencing; frameworks hold sequencing errors
testReadout: polyreactivity (PSR sort gate)

Please review the following examples before continuing.
INSERT INTO assay_data (itemsequence, testreadout, datavalue) VALUES
  ('QVQLVESGGGLVQAGGSLRVSCAASGRIFFPYDMGWYRQAPGKERELVAAITNSGGRTYYADSVKGRFTISRDKAKNTVYLQMNSLKPEDTAVYYCNADAYEFRWVKHYDYWGQGTQVTVSS', 'polyreactivity (PSR sort gate)', 'low polyreactivity'),
  ('QVQLVESAGGLVQAGGSLRLSCAASGRIFWLYAMGWYRQAPGKERELVASISQSGANTYYADSVKGRFTISRDNSKNNVYLQMNCLKPEYTSVDYCSSNRYDSYYFWVGYWGQGSQVTVSS', 'polyreactivity (PSR sort gate)', 'low polyreactivity'),
  ('QVQLVESGGGIVQAGVSLRLSCAASGSTFESNAMGWYRQAPGKECELVASISGSGGSTFYADSVKGRFTISRDNAKNTVYLHMNSLKPEDTARYYCAAYKEPYYEESGYWGQVTQVTVSS', 'polyreactivity (PSR sort gate)', 'low polyreactivity'),
  ('QVQLVESGGGLVQAGGSLRLSCAASGSILPRYGMGWYSQAPGKEREFVAAISWRGGRTYYADSVKGRFTISRDTAKHTVYVQMNSLKPEDTAVYYCAARAHIYTRLDYWGQGTEVTVSS', 'polyreactivity (PSR sort gate)', 'high polyreactivity'),
  ('QVKLVESGGGLVQAGGSLRLSCGASVGTFYRYSMVWFRQAPGKERELVAVISKRGGTTYYADSVKRRFTISRDNANNTVNLQMNSLKPEDTAVYYCADRPYYWGQGTQVTVSS', 'polyreactivity (PSR sort gate)', 'high polyreactivity');

Go through the list and state polyreactivity (PSR sort gate) for each entry.
1. QVQLVESGGGLVQAGGSLRLSCAASGRTFYLYAMGWYRQAPGTERELVADITSGGSTYYADSVKGRFTISRDNAKNTVYLQMNSLKPEDTAVYYCAADWVTFYSYTEYDYWGQGTQVTVSS
2. QVHLVESGGGLVQAGGSLRLSCAASGRIIRYNAMGWYRQAPGKERELDAAITRSGGSTYYADSVKGRFTISRDNAKNTVYLQMNSLKPEDTGVYYCAKVQNGQWSTSGVPGDYQYNYWGQATQVTVSS
3. QVQLVESGGALVQAGGSLRLTCAASGRIYTRYAMGWNRKATGKERELVAVITRSGGSTYYADSVKGRFTISRDNGKNTVYLQMNSLNPEVTAVYDCAAKYYGEMYYWGQGTQVTVSS
4. QVQLVESAGGLVQAGGSLRLSCDASGSILDSNAMGWYRQAHGKERELVAAITSGGSTYYADSVKGRFTISRDNAKNTVYLQMNSLKPEDTAVYYCAAVDIYKYYQYYAFPYYRYDSWGQGTQVTVSS
5. QVQLVESGGGLVEAGGSLRLSCDASGRIFYSNAMGWSRQAPGKERELVATITRSSGITYYADSVKGRFTISRDNAKNTVYLQMNSLKPEDTAVYYCAAPWYYYGYWGQGTQVTVSS
6. QVQLVESGGGLVQAGGSLRLSCAASGSTSQPYDMGWYRQAPGTERELVASITNGGSTNYADSVKGRFTISRDNAKNTVYLQMNSLNPEDTAVDYCATRNGYSGTYGYWGQGTQVTVSS

Outgoing:
1: low polyreactivity; 2: high polyreactivity; 3: low polyreactivity; 4: low polyreactivity; 5: high polyreactivity; 6: low polyreactivity
